TGT: T1, EsCas13d, nuclease-dead (Eubacterium siraeum, UniProt B0MS50, R295A;H300A;R849A;H854A)
T1 sequence: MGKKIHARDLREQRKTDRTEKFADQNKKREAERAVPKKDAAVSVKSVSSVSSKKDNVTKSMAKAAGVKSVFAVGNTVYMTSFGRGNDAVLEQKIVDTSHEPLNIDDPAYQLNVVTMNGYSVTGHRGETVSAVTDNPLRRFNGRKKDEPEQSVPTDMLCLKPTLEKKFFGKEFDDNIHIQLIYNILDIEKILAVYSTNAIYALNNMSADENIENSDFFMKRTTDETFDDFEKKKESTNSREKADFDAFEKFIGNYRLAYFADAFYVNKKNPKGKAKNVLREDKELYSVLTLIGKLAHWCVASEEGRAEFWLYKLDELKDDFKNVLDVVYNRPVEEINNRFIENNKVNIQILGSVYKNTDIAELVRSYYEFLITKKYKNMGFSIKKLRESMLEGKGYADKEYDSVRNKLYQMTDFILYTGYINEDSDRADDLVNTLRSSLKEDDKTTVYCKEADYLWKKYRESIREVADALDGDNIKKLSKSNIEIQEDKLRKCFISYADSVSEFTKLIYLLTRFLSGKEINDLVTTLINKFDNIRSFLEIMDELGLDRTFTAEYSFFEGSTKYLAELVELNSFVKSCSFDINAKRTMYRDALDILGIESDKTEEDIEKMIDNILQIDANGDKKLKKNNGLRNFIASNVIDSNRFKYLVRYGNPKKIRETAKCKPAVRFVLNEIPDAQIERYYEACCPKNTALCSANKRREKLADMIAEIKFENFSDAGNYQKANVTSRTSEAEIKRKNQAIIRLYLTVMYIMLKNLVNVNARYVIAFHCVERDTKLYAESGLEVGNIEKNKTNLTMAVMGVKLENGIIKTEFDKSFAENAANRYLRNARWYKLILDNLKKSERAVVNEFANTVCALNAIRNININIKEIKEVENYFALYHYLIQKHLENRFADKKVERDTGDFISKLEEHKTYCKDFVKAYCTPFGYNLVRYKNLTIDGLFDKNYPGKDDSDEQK
PROCEDURE_SUMMARY: crRNA (strand 1, pre-loaded); Mg2+; 40 mM Tris-HCl pH 7.5, 150 mM NaCl, 6 mM MgCl2, 1 mM DTT, 0.1% Tween-20, 0.2 mg/ml BSA; 25 C; 10 min per concentration, then washed
CONDITION_INFO: tags: His6-TwinStrep-SUMO cleaved; N-terminal SNAP kept (SNAP-Surface 488); label: 3' end held by stalled T7 RNA polymerase
Measured Kd values are reported for all entries that follow.

1. target 1 MT 5'PFS CCC 3'PFS UUC (mixed) RNA 1: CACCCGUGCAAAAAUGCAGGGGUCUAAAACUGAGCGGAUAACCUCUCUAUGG RNA 2: GGGAAUGGAUCCACAUCUACGAAUUCCCCCCAUAGAGAGGUUAUCCGCUCAUUCAGAUCGGAAGAGCACACGU    ~15 nM

For the next question, use this binder.
target 1 A1G,C7U (mixed) RNA 1: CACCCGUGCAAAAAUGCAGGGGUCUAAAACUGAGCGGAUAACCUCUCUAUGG RNA 2: GGGAAUGGAUCCACAUCUACGAAUUCGUACCAUAGAGAGGUUAUUCGCUCGCCGAGAUCGGAAGAGCACACGU yielded Kd of 9.2 nM

meta.source: paper PMC10786891
